Experiment: P. aeruginosa biofilm formation inhibitors, primary screen, strain PAO1, LB-PBS medium, absorbance 600 nm (AID 1176); note: test concentration not given here
Settings: P. aeruginosa PAO1 growth/biofilm, A600, 12 h; higher = more signal
Activity calls are given as the source filed them. The rule behind the calls is not given here.
Parameter Measured: z-score

Q: Determine its reported z-score: CCOC(=O)C[C@H]1[C@H](OC(=O)Cc2ccc3c(c2)OCO3)[C@@H](NC(=O)CC(C)C)c2cc(OCCCO)ccc2N1C(=O)c1ccc2ccccc2n1
Ans: -1.53 (inactive)

Q: Determine its reported z-score: COC(=O)[C@@]1(Cc2ccc(F)cc2)[C@H]2c3cc(C(=O)N4CCCC4)n(Cc4ccc(C(F)(F)F)nc4)c3C[C@H]2CN1C(=O)c1ccccc1
Ans: -0.691 (inactive)

Q: Determine its reported z-score: CCOC(=O)C[C@H]1[C@H](OC(=O)c2cc3ccccc3oc2=O)[C@@H](NC(=O)c2ccc(-c3ccccc3)cc2)c2cc(OCCCO)ccc2N1C(=O)Cc1ccc(OC)cc1
Ans: 0.285 (inactive)

====

Experiment: PSAC antagonists in infected red cells, primary screen, cell-based, P. falciparum Indochina, OD700, 1 h (AID 1154)
Settings: P. falciparum Indochina infected RBC osmotic lysis, higher = more signal, called active from +8 up or from −8 down
Give measured z-score for each item. Keep answers brief.
Field format: numeric only.

Q: Determine its reported z-score: Cc1ccc(S(=O)(=O)N2[C@@H](c3ccccc3)C(C(=O)O)=C[C@H]2C(C)(C)C)cc1
Ans: 0.386

Q: Determine its reported z-score: O=C(NCCN1CCOCC1)[C@@H]1c2ccccc2C(=O)N(CC23CC4CC(CC(C4)C2)C3)[C@H]1c1ccc(CO)cc1
Ans: 2.89

Q: Determine its reported z-score: CCCCCN1CC=CC23O[C@@H]4/C=C\CCCOC(=O)C4[C@H]2C(=O)N(CCCCCO)[C@@H]3C1=O (some centres undefined)
Ans: 0.46

Q: Determine its reported z-score: Cc1cccc([C@H]2C[C@H]3C(Br)=C[C@@]2(CO)C(=O)[C@]32CO2)c1
Ans: -0.131

Q: Determine its reported z-score: [N-]=[N+]=Nc1ccccc1C[C@@]1(C(=O)NCc2ccccc2)N=C(c2ccc(OCCCO)cc2)O[C@@H]1c1ccccc1
Ans: 27.6

Q: Determine its reported z-score: O=C(CS)NCCCCCCNC(=O)[C@H]1C[C@H]2C(=O)NCC(=O)N2[C@H]1c1cccc(OCCO)c1
Ans: 2.16

Q: Determine its reported z-score: CC(C)C[C@H]1NC(=O)CNC(=O)[C@@]23C(=O)N[C@@H](Cc4ccccc4)C2[C@H](C)[C@@]2(C)O[C@H]2C3/C=C/C/C=C\CNC1=O (some centres undefined)
Ans: 0.392

Q: Determine its reported z-score: O=C1NC(=O)C2C1C=CC(C(O)c1ccc(F)cc1)N2Nc1ccc(Cl)cc1Cl (centres undefined)
Ans: 3.43

Q: Determine its reported z-score: C=CC[C@H](O)c1ccc(O)c(F)c1
Ans: 0.307

Q: Determine its reported z-score: C=CCOC(=O)[C@@H]1[C@H]2C(=O)O[C@H](c3ccccc3)[C@H](c3ccccc3)N2[C@H](c2ccc(OCCOC(=O)[C@H]3C[C@H]4C(=O)N[C@@H](CCCCN(C)C)C(=O)N4[C@H]3c3cccc(OCCO)c3)cc2)[C@@]12C(=O)Nc1ccccc12
Ans: 0.323

Q: Determine its reported z-score: C=CCC(OC(C)=O)[C@@H]1[C@@H](N(Cc2cccc3ccccc23)C(=O)c2ccc(C)cc2)c2cc(OCCCO)ccc2N1C(=O)Cc1ccc2ccccc2c1 (some centres undefined)
Ans: 0.483

Q: Determine its reported z-score: COc1c(C)cc(-c2cc3c(c(CCc4ccccc4)n2)[Si](C(C)C)(C(C)C)O[C@H]3c2ccccc2)cc1C
Ans: 4.98

Q: Determine its reported z-score: C=C1C(=O)C=C2CN(C(=O)c3ccccc3)[C@@](Cc3ccc(F)cc3)(C(=O)OC)[C@@H]12
Ans: -0.0775

Q: Determine its reported z-score: C=C(COC)/C(=C/C[C@@H](OC(=O)c1ccncc1)c1ccccc1OCCO)c1cnc2ccccc2c1
Ans: 25.7

Q: Determine its reported z-score: C=C(CCCC)/C(=C/C[C@@H](OC(C)=O)c1cccc(OCCO)c1)c1cc(C(=O)OC)ccc1OC
Ans: 17.4

Q: Determine its reported z-score: C=CCOC(=O)[C@@H]1[C@H]2C(=O)O[C@H](c3ccccc3)[C@H](c3ccccc3)N2[C@H](c2ccc(OCCOC(=O)[C@@H]3C[C@@H]4C(=O)N[C@@H](CC(C)C)C(=O)N4[C@@H]3c3ccc(O)cc3)cc2)[C@@]12C(=O)Nc1ccc(I)cc12
Ans: 1.5

Q: Determine its reported z-score: COC(=O)[C@@]1(Cc2ccc(F)cc2)[C@H]2c3cc(C(=O)N(C)C)n(Cc4ccc(C(F)(F)F)nc4)c3C[C@H]2CN1C(=O)c1ccccc1
Ans: 1.93

Q: Determine its reported z-score: C=CCNC(=O)[C@H]1[C@@H]2C(=O)O[C@@H](c3ccccc3)[C@@H](c3ccccc3)N2[C@@H](c2ccc(OCCO)cc2)[C@]12C(=O)N(C(=O)OCCOC)c1ccc(C#CCC(C(=O)OC)C(=O)OC)cc12
Ans: 4.28

Q: Determine its reported z-score: CN(C)C(=O)[C@]1(CCS(=O)(=O)c2ccccc2)N=C(c2ccc(OCCCO)cc2)O[C@@H]1c1ccccc1CN=[N+]=[N-]
Ans: 25.5

Q: Determine its reported z-score: CC1C2C(CCCO)=CC(C3C(=O)N(C)C(=O)C23)N1Cc1cccc(OC(F)(F)F)c1 (centres undefined)
Ans: 1.38

Q: Determine its reported z-score: CC(=O)NCCCC[C@@H]1NC(=O)[C@H]2C[C@@H](C(=O)O)[C@@H](c3cccc(OCCO)c3)N2C1=O
Ans: 1.15

Q: Determine its reported z-score: COc1cc(Cc2cc3c(c(-c4ccccc4)n2)[Si](C(C)C)(C(C)C)OC3)cc(OC)c1OC
Ans: 1.62

Q: Determine its reported z-score: COCCCNC(=O)[C@@]1(Cc2ccccc2I)c2ccccc2C(=O)N(C2CCCCC2)[C@H]1c1ccc(CO)cc1
Ans: 8.09

Q: Determine its reported z-score: COC(=O)[C@H]1N=C(c2ccc(OCCCO)cc2)O[C@H]1c1ccccc1N=[N+]=[N-]
Ans: 29.3

Q: Determine its reported z-score: COC(=O)C[C@H]1O[C@]2(C(=O)N(C)c3ccccc32)[C@@H](C)[C@@H]1[Si](C)(C)c1ccccc1
Ans: 1.48

Q: Determine its reported z-score: CC1CC/C=C\[C@H]2OC34C=CCN(C(C)C)C(=O)[C@H]3N(C(C)CO)C(=O)[C@@H]4C2C(=O)O1 (some centres undefined)
Ans: 1.07

Q: Determine its reported z-score: O=C1C2C=CC(C(O)c3ccccn3)N(Nc3ccc([N+](=O)[O-])cc3)C2C(=O)N1c1ccccc1 (centres undefined)
Ans: 4.59

Q: Determine its reported z-score: CCCCCCCCCCC(O)C1C=CC2C(=O)N(C)C(=O)C2N1Nc1ccccc1 (centres undefined)
Ans: 8.71

Q: Determine its reported z-score: CCCNC(=O)[C@@]1(Sc2ccc(C)cc2)CC(=O)N(Cc2cc(C(F)(F)F)cc(C(F)(F)F)c2)[C@@H]1c1ccc(CO)cc1
Ans: 2.74

Values compiled from PubChem BioAssay.
